# Tested on: Porphyromonas gingivalis
# assay: Inhibition of Porphyromonas gingivalis recombinant SerB653 phosphatase expressed in Escherichia coli BL21 using phosphoserine as substrate at 50 uM after 1 hr by malachite green colorimetric assay
Where inhibition equals or exceeds 90%, the correct label is 1; where it does not, the label is -1.

smilescode=CCC(=O)c1c(Nc2ccc(Cl)cc2F)[nH]c2c(Cl)ccc([N+](=O)[O-])c2c1=O answerlabel=1
smilescode=COc1cccc(Nc2[nH]c3c([N+](=O)[O-])cc(Cl)cc3c(=O)c2C(C)=O)c1 answerlabel=-1
smilescode=CC(C)CC(=O)c1c(Nc2cc(Cl)ccc2Cl)[nH]c2c(Cl)ccc([N+](=O)[O-])c2c1=O answerlabel=1
smilescode=CCC(=O)c1c(Nc2ccc(Cl)c(Cl)c2)[nH]c2c(Cl)ccc([N+](=O)[O-])c2c1=O answerlabel=1
smilescode=CC(C)C(=O)c1c(Nc2cc(Cl)cc(Cl)c2)[nH]c2c(Cl)ccc(Cl)c2c1=O answerlabel=1
smilescode=CC(=O)c1c(Nc2cc(F)cc(F)c2)[nH]c2c(Cl)c(Cl)ccc2c1=O answerlabel=1

----------
# assay: Inhibition of Porphyromonas gingivalis recombinant SerB653 phosphatase expressed in Escherichia coli BL21 using phosphoserine as substrate after 1 hr by malachite green colorimetric assay
readoutKind: IC50 (µM)

smilescode=CCC(=O)c1c(Nc2ccc(Cl)cc2F)[nH]c2c(Cl)ccc([N+](=O)[O-])c2c1=O endpointresult=19.8
smilescode=CCC(=O)c1c(Nc2ccc(Cl)c(Cl)c2)[nH]c2c(Cl)ccc([N+](=O)[O-])c2c1=O endpointresult=11.6
smilescode=CC(=O)c1c(Nc2ccc(Cl)cc2Cl)[nH]c2c(C(F)(F)F)cccc2c1=O endpointresult=18.6
smilescode=CC(C)C(=O)c1c(Nc2cccc(Cl)c2Cl)[nH]c2c(Cl)ccc([N+](=O)[O-])c2c1=O endpointresult=19.1

----------
# assay: Inhibition of Porphyromonas gingivalis recombinant SerB653 phosphatase expressed in Escherichia coli BL21 using phosphoserine as substrate measured every 10 secs by malachite green colorimetric assay
pKi: −log10 of the molar value.
readoutKind: pKi

smilescode=CC(=O)c1c(Nc2ccc(Cl)cc2Cl)[nH]c2c(C(F)(F)F)cc(Cl)cc2c1=O endpointresult=5.60
smilescode=CC(=O)c1c(Nc2ccc(Cl)cc2)[nH]c2c(C(F)(F)F)cc(Cl)cc2c1=O endpointresult=5.57
smilescode=O=C(c1c(Nc2cccc(Cl)c2Cl)[nH]c2c(Cl)ccc([N+](=O)[O-])c2c1=O)C1CC1 endpointresult=5.35
smilescode=CCC(=O)c1c(Nc2cc(Cl)ccc2Cl)[nH]c2c(Cl)ccc([N+](=O)[O-])c2c1=O endpointresult=5.85

----------
Entries and their measured inhibition follow.
# Tested on: Porphyromonas gingivalis
# assay: Inhibition of Porphyromonas gingivalis recombinant SerB653 phosphatase expressed in Escherichia coli BL21 using phosphoserine as substrate at 50 uM after 1 hr by malachite green colorimetric assay
readoutKind: inhibition (%)

smilescode=CC(=O)c1c(Nc2cc(F)cc(F)c2)[nH]c2c([N+](=O)[O-])cc(Cl)cc2c1=O units=% endpointresult=92.2
smilescode=CC(=O)c1c(Nc2ccc(C(F)(F)F)cc2)[nH]c2c(C(F)(F)F)cc(Cl)cc2c1=O units=% endpointresult=97.7
smilescode=CC(C)CC(=O)c1c(Nc2cccc(Cl)c2Cl)[nH]c2c(Cl)ccc([N+](=O)[O-])c2c1=O units=% endpointresult=98.6
smilescode=CC(=O)c1c(Nc2cc(F)cc(F)c2)[nH]c2c(F)ccc(F)c2c1=O units=% endpointresult=5.9
smilescode=CC(C)C(=O)c1c(Nc2cc(Cl)ccc2Cl)[nH]c2c(Cl)ccc([N+](=O)[O-])c2c1=O units=% endpointresult=97.3
smilescode=COc1ccc(Nc2[nH]c3c([N+](=O)[O-])cc(Cl)cc3c(=O)c2C(C)=O)cc1 units=% endpointresult=6.2
smilescode=CC(=O)c1c(Nc2ccccc2)[nH]c2c(Cl)c(Cl)ccc2c1=O units=% endpointresult=4.8
smilescode=CC(=O)c1c(Nc2ccccc2)[nH]c2c([N+](=O)[O-])cc(Cl)cc2c1=O units=% endpointresult=3.1
smilescode=CC(=O)c1c(Nc2cc(Cl)cc(Cl)c2)[nH]c2c(C)ccc(Cl)c2c1=O units=% endpointresult=8.6
smilescode=CCC(=O)c1c(Nc2cc(Cl)ccc2Cl)[nH]c2c(Cl)ccc([N+](=O)[O-])c2c1=O units=% endpointresult=97.8
smilescode=CC(=O)c1c(Nc2ccccc2Cl)[nH]c2c(C(F)(F)F)cc(Cl)cc2c1=O units=% endpointresult=89.1
smilescode=CC(C)CC(=O)c1c(Nc2cc(F)cc(F)c2)[nH]c2c(Cl)ccc([N+](=O)[O-])c2c1=O units=% endpointresult=97.5
smilescode=O=C(c1c(Nc2ccc(F)cc2F)[nH]c2c(Cl)ccc([N+](=O)[O-])c2c1=O)C1CC1 units=% endpointresult=85.6
smilescode=O=C(c1c(Nc2ccc(Cl)cc2F)[nH]c2c(Cl)ccc([N+](=O)[O-])c2c1=O)C1CC1 units=% endpointresult=95.5
smilescode=CC(=O)c1c(Nc2ccc(C(C)(C)C)cc2)[nH]c2c([N+](=O)[O-])cc(Cl)cc2c1=O units=% endpointresult=0
smilescode=CC(C)C(=O)c1c(Nc2ccc(Cl)cc2Cl)[nH]c2c(Cl)ccc(Cl)c2c1=O units=% endpointresult=97.7
smilescode=O=C(c1c(Nc2ccc(Cl)cc2Cl)[nH]c2c(Cl)ccc([N+](=O)[O-])c2c1=O)C1CC1 units=% endpointresult=98.1
smilescode=CCC(=O)c1c(Nc2ccc(Cl)cc2Cl)[nH]c2c(Cl)ccc([N+](=O)[O-])c2c1=O units=% endpointresult=97.4
smilescode=CC(=O)c1c(Nc2cc(F)ccc2F)[nH]c2c(F)ccc(F)c2c1=O units=% endpointresult=7.9
